Exercise: state measured TGI for each of the compounds provided.
- Tested on: HCT-15 colon
- assay.name: NCI tumour cell line growth inhibition, 48 h

The recorded TGI for entry c1cnc2c(c1)-n1cccc1C1(CCCCC1)NN2 equals > 100 µM

The recorded TGI for entry N#CCCC(C=O)(CCC#N)CCC#N equals > 100 µM

The recorded TGI for entry O=c1[nH]c(=O)n(COC(CO)CO)cc1-c1ccccc1 equals > 100 µM

The recorded TGI for entry C[s+]1c2ccccc2c2ccccc21 equals > 100 µM

The recorded TGI for entry Clc1ccccc1C(Nc1cnccn1)Nc1cnccn1 equals > 100 µM

The recorded TGI for entry COC1CC(C)(NC(=O)C(F)(F)F)C2OC(c3ccccc3)OCC2O1 (stereo unspecified) equals > 100 µM

The recorded TGI for entry NCCO/C=C/C(N)C(=O)O (stereo unspecified) equals > 100 µM

The recorded TGI for entry COc1cc(C2CC(c3ccc(Nc4nc(NCCO)nc(NCCO)n4)cc3)=NN2c2cc(Cl)cc(Cl)c2)cc(OC)c1OC (stereo unspecified) equals 3.13 µM

The recorded TGI for entry O=C1c2cc3c(cc2-c2c1c1cc(F)c(F)cc1c(=O)n2CCCn1ccnc1)OCO3 equals > 100 µM

The recorded TGI for entry Cn1c(=O)oc2cc(C3CCC(=O)N3Cc3csc(-c4ccccc4)n3)ccc21 (stereo unspecified) equals > 100 µM

The recorded TGI for entry COc1ccccc1NC(=O)C(=O)C(C(=O)c1ccccc1F)C1OC(=O)c2ccccc21 (stereo unspecified) equals 69.2 µM
